Biological target: Bcl-2 protein (Recombinant Human Bcl-2 Protein) (Homo sapiens)
Construct: purchased Novus NBP2-34889
Sequence (P10415 whole entry): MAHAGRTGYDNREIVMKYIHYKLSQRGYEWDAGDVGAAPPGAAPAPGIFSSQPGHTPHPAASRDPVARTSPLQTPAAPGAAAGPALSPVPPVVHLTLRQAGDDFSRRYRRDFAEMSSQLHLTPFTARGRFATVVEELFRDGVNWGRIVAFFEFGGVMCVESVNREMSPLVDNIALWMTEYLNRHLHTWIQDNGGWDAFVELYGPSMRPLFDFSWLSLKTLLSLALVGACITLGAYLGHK
Test: Binding evaluation of mixture library compounds to Bcl-2 using AS-MS (affinity selection mass spectrometry)
Details: AS-MS on the mixture of 1200 library compounds; ASMS Ratio(%)=(A−C)/B×100; replicate n = 1
Value Kind: ASMS ratio (%) n = 1
One number for each entry, in %.

Example cases with answers are listed next.
In [3]: df
Out[3]:
                               query_smiles                          target_or_system  recorded_number
0  CCOc1cncc(-c2ccc(C(=O)N3CCN(c4ccc(C(=O)Nc5ccc(OC)cc5)cc4)CC3)cc2F)c1  Bcl-2 protein (Recombinant Human Bcl-2 Protein) (Homo sapiens)              4.9
1  CCOc1cccc(-c2ccc(CN3CCN(c4ccc(C(=O)Nc5ccc(OC)cc5)nn4)CC3)cc2C)c1  Bcl-2 protein (Recombinant Human Bcl-2 Protein) (Homo sapiens)              2.0
2  CCOc1cncc(C#Cc2cc(C(=O)N3CCN(c4ccc(C(=O)N(C)CC56CC7CC(CC(C7)C5)C6)cc4)CC3)cc(C(F)(F)F)c2)c1  Bcl-2 protein (Recombinant Human Bcl-2 Protein) (Homo sapiens)             −0.2

The following molecules each have a reported value; give each one's ASMS ratio (%) n = 1.
1. CCOc1cccc(-c2cc(C(=O)N3CCN(c4ccc(C(=O)N(CC)CC)cc4)CC3)cc(C(C)(C)C)c2)c1
2. CCOc1cncc(-c2ccc(CN3CCN(c4ccc(C(=O)N(CC)CC)cc4)CC3)cc2F)c1
3. CCOc1cncc(-c2ccccc2CCC(=O)N2CCN(c3ccc(C(=O)Nc4ccc(OC)cc4)nn3)CC2)c1
4. CCOc1cncc(-c2ccc(C(=O)N3CCN(c4ccc(C(=O)N(CC)CC)cc4)CC3)cc2F)c1
5. CCOc1cncc(-c2cc(C(=O)N3CCN(c4ccc(C(=O)Nc5ccc(OC)cc5)cc4)CC3)cc(C(F)(F)F)c2)c1

Outgoing:
1: 2.7; 2: 0.5; 3: 0.8; 4: −1.0; 5: 1.8
